# procedure text: Human HepG2 cell viability assay in 384 well format
# Format: toxicity, cell-based
# Set-up: dose 125 nL, time 70.5 hour; concentration not given beside the values
# setup conditions: HepG2 cells, read-out: Inhibition
measurement type: cytotoxicity at 70.5 h (%)
Your answer should be a plain number; it is taken to be in %.

# example entries with known answers
>>> endpoint_value("CC(=O)N(Cc1noc(C)n1)C1CCN(CC2(O)CCCCC2)C1 (centres undefined)")
-27.3
>>> endpoint_value("CCOC(=O)N1CCC(Oc2ccc(C(F)(F)F)cn2)CC1")
-7.88
>>> endpoint_value("CCOCC1CN(C(=O)c2cccnc2)Cc2cnn(C)c21 (centres undefined)")
-9.4

Consider CC(C)C(=O)NCc1ccnc(Oc2ccc(F)cc2)c1 . Its measured cytotoxicity at 70.5 h is -5.04

Consider Cc1cccc(Oc2ccccc2CNC(=O)C2CCNC(=O)C2)c1 (centres undefined) . Its measured cytotoxicity at 70.5 h is -6.18

Consider Cc1c(C(=O)NC2CCCOC2)nnn1-c1ccccc1 (centres undefined) . Its measured cytotoxicity at 70.5 h is 17.4

Consider Cc1ccccc1N1CC2(CCN(S(=O)(=O)c3ccccc3)C2)CC1=O (centres undefined) . Its measured cytotoxicity at 70.5 h is -7.42

Consider CC[C@@]1(O)CCN(CCCOc2ccc(C(N)=O)cc2)C[C@H]1O . Its measured cytotoxicity at 70.5 h is -4.97

Consider Cc1csc(CN2C[C@@H]3CN(S(C)(=O)=O)CCO[C@@H]3C2)n1 . Its measured cytotoxicity at 70.5 h is 5.33
